B1: r11_951_TrROS_Hall (parent)
chain: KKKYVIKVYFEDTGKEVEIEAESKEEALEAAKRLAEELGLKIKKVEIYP

- Variants of: B1
- runDescription: folding stability dG (cDNA display proteolysis); higher = more stable
- runConditions: PBS, room temperature
quantityName: folding stability dG (kcal/mol)

K1E 4.16
K2M 4.59
V5N 4.12
V8C 3.91
E11S 4.63
E36D 4.42
K7V 4.1
E26T 4.28
E36P 3.05
S23L 4.01
P49F 4.6
E26L 4.46
K15N 4.63
E36F 4.76
L38T 4.16
Y48A 4.25
Y48T 4.52
I19W 4.51
E20V 4.42
G14Q 4.39
E11K 4.64
A21W 3.72
E18D 4.45
E18G 4.06
E16W 4.48
S23E 4.22
Y4D 2.33
K44D 3.95
I6E 1.26
E18P 3.84
A35G 4.25
E16H 4.29
E25H 4.39
K3V 4.24
A27W 3.93
E11V 4.83
D12M 4.55
R33F 4.38
E37A 4.67
S23N 4.38
K7H 4.19
A27F 3.8
E26N 4.33
E25V 4.36
K24G 4.41
K15R 4.19
